Every entry's value here was drawn from patent US6399654B1.

In this section we review reported EC50 values for a set of molecules.
system: Influenza B Panama/45/90; experiment: microbe, parasite or virus in culture; format: cell-based; details: Influenza B virus, MDCK; Influenza B Panama/45/90; read-out: CPE Inhibition EC50
Report the figure in µg/mL without appending any unit label.

Examples with answers:
molecule: O=c1cc(-c2ccc(O)c(-c3c(O)cc4oc(-c5ccc(O)cc5)cc(=O)c4c3O)c2)oc2cc(O)cc(O)c12
target_of_assay: Influenza B Panama/45/90
EC50 [µg/mL]: 0.23
//
molecule: COc1ccc(-c2cc(=O)c3c(OC)cc(OC)c(C4C(=O)c5c(OC)cc(OC)cc5OC4c4ccc(OC)cc4)c3o2)cc1 (stereo not drawn)
target_of_assay: Influenza B Panama/45/90
EC50 [µg/mL]: 2.6
//
molecule: O=C1CC(c2ccc(O)cc2)Oc2cc(O)c(-c3c(O)cc4c(c3O)C(=O)CC(c3ccc(O)cc3)O4)c(O)c21 (stereo not drawn)
target_of_assay: Influenza B Panama/45/90
EC50 [µg/mL]: 0.97
//
molecule: O=C1CC(c2ccc(O)cc2)Oc2cc(O)c(-c3c(O)cc(O)c4c3OC(c3ccc(O)cc3)CC4=O)c(O)c21 (stereo not drawn)
target_of_assay: Influenza B Panama/45/90
EC50 [µg/mL]: 4.1
//
molecule: O=c1cc(-c2ccc(O)c(-c3c(O)cc(O)c4c(=O)cc(-c5ccc(O)cc5)oc34)c2)oc2cc(O)cc(O)c12
target_of_assay: Influenza B Panama/45/90
EC50 [µg/mL]: 0.56

Please look at the following molecule next.
Query EC50 on Influenza B Panama/45/90 for NC(=O)c1ncn([C@@H]2O[C@H](CO)[C@@H](O)[C@H]2O)n1 [Ribavirin, ribavirin, reference compound]
1.5
